# Test system: SK-OV-3
# Protocol text: NCI tumour cell line growth inhibition, 48 h
Activity calls are given as the source filed them. No stated cut-off is given here; in the data, active = GI50 up to about 1.1 µM and inactive = higher.
Readout name: GI50

I have this compound here, CC(=O)OC1[C@@H](OC(C)=O)CN(OCc2ccccc2)C[C@H]1OC(C)=O (stereo partly specified) , and I need its recorded GI50. 33 µM (inactive)

// query: CC(C)CC1[C@@H](OCc2ccccc2)COS(=O)N1Cc1ccccc1 (stereo partly specified) > 100 µM (inactive)

# repeat for Cc1cn(CCCCOC(=O)NC(CCCNC(N)=O)C(=O)O)c(=O)[nH]c1=O (stereo unspecified) > 100 µM (inactive)

Also O=C(SC1=NCCN1)c1cccc2ccccc12 ? 44.5 µM (inactive)

// query: Cc1nc(-c2ccc(Cl)cc2)cn2c1nc1ccccc12 > 100 µM (inactive)

Item: CN(C)CC/C(=N\Nc1c(F)c(F)c(F)c(F)c1F)c1ccccc1 3.32 µM (inactive)
